Protocol Details: in vivo
Protocol Conditions: Sprague-Dawley, rat, iv, 10 mg/kg, CLR
Measured Metric: CL renal (mL/min/kg)

[[record]]
smiles_text = "C[C@@H]1CCN(C(=O)CC#N)C[C@@H]1N(C)c1ncnc2[nH]ccc12"
value_measured = 1.44


###

Protocol Details: Protein binding of tofacitinib to fresh rat plasma (equilibrium dialysis)
Type: in vitro ADME
Protocol Conditions: pH 7.4, tofacitinib 5 μg/mL in the absence of voriconazole, n = 5, read-out: Protein binding (bound fraction) (converted)
Measured Metric: fraction unbound at 8 h, 5 μg/mL

[[record]]
smiles_text = "C[C@@H]1CCN(C(=O)CC#N)C[C@@H]1N(C)c1ncnc2[nH]ccc12"
value_measured = 0.621


###

Protocol Details: in vitro
Protocol Conditions: rat, liver microsomes, pH 7.4, with voriconazole 20 μM
Measured Metric: microsomal CLint (µL/min/mg)

[[record]]
compound = "C[C@@H]1CCN(C(=O)CC#N)C[C@@H]1N(C)c1ncnc2[nH]ccc12 [tofacitinib, Tofacitinib]"
measured_metric = "microsomal CLint"
unit_abbrev = "µL/min/mg"
value_measured = 8.05


###

Protocol Details: in vivo
Protocol Conditions: Sprague-Dawley, rat, po, 20 mg/kg, CLR
Measured Metric: CL renal (mL/min/kg)

[[record]]
compound = "C[C@@H]1CCN(C(=O)CC#N)C[C@@H]1N(C)c1ncnc2[nH]ccc12 [tofacitinib, Tofacitinib]"
value_measured = 5.36


###

Protocol Details: Pharmacokinetics after intravenous administration of tofacitinib and/or voriconazole to rats
Protocol Conditions: Sprague-Dawley, rat, in vivo, 10 mg/kg
Measured Metric: AUC (ng·h/mL)

[[record]]
molecule = "C[C@@H]1CCN(C(=O)CC#N)C[C@@H]1N(C)c1ncnc2[nH]ccc12 [tofacitinib, Tofacitinib]"
unit_abbrev = "ng·h/mL"
value_measured = 12300


###

Protocol Details: in vivo
Protocol Conditions: Sprague-Dawley, rat, F
The entries below come with measured bioavailability values attached.
Measured Metric: bioavailability (%)

[[record]]
smiles_text = "C[C@@H](c1ncncc1F)[C@](O)(Cn1cncn1)c1ccc(F)cc1F"
measured_metric = "bioavailability"
unit_abbrev = "%"
value_measured = 106

[[record]]
smiles_text = "C[C@@H]1CCN(C(=O)CC#N)C[C@@H]1N(C)c1ncnc2[nH]ccc12"
measured_metric = "bioavailability"
unit_abbrev = "%"
value_measured = 71.2


###

Protocol Details: in vitro
Protocol Conditions: rat, liver microsomes, pH 7.4
Measured Metric: Km (µM)

[[record]]
smiles_text = "C[C@@H]1CCN(C(=O)CC#N)C[C@@H]1N(C)c1ncnc2[nH]ccc12"
unit_abbrev = "µM"
value_measured = 124


###

Protocol Details: in vivo
Protocol Conditions: Sprague-Dawley, rat, iv, 10 mg/kg, Vss
Measured Metric: Vd

[[record]]
smiles_text = "C[C@@H]1CCN(C(=O)CC#N)C[C@@H]1N(C)c1ncnc2[nH]ccc12"
measured_metric = "Vd"
value_measured = "1.21 L/kg"


###

Protocol Details: in vivo
Protocol Conditions: Sprague-Dawley, rat, iv, 10 mg/kg, MRT
Measured Metric: MRT (h)

[[record]]
smiles_text = "C[C@@H](c1ncncc1F)[C@](O)(Cn1cncn1)c1ccc(F)cc1F"
value_measured = 7.03


###

Protocol Details: in vitro
Protocol Conditions: rat, intestinal microsomes, pH 7.4, with voriconazole 20 μM
Measured Metric: microsomal CLint (µL/min/mg)

[[record]]
smiles_text = "C[C@@H]1CCN(C(=O)CC#N)C[C@@H]1N(C)c1ncnc2[nH]ccc12"
value_measured = 7.05

